Source listed as the supplement of paper PMC11562712.

Experiment: first-order primary biodegradation rate constant k (sorption-corrected, fDis-corrected) (d-1); higher = faster biodegradation
Reported conditions: river segment: Spain (ES) F_Pris_Salt; incubation temperature 24 °C
Measured parameter: first-order primary biodegradation rate constant k
Simply state the number, no unit and no words.

Some molecules with known first-order primary biodegradation rate constant k results, for comparison:
>>> print(df.to_string())
               molecule  result
0  CCCOC(=O)c1ccc(O)cc1   0.275
1           CCCCCCCCCCN    12.1

Looking up CC(C)NCC(O)COc1ccc(COCCOC(C)C)cc1 (stereo not given) , I see its first-order primary biodegradation rate constant k listed as 0.144

Looking up CC(C(=O)O)c1cccc(C(=O)c2ccccc2)c1 (stereo not given) , I see its first-order primary biodegradation rate constant k listed as 0.0247

Looking up NS(=O)(=O)c1cc(C(=O)O)c(NCc2ccco2)cc1Cl [Furosemide] , I see its first-order primary biodegradation rate constant k listed as 0.0149

---

Each record here notes measured first-order primary biodegradation rate constant k.
Experiment: first-order primary biodegradation rate constant k (sorption-corrected, fDis-corrected) (d-1); higher = faster biodegradation
Reported conditions: river segment: Switzerland (CH) U_Contam; incubation temperature 17 °C
Simply state the number, no unit and no words.

                            molecule_smiles  result
0  Nc1nc(NC2CC2)c2ncn([C@H]3C=C[C@@H](CO)C3)c2n1    1.47

Shifting focus to the molecule that follows.
Looking up Cc1ccc2n[nH]nc2c1 , I see its first-order primary biodegradation rate constant k listed as 0.139

---

Each record here notes measured first-order primary biodegradation rate constant k.
Experiment: first-order primary biodegradation rate constant k (sorption-corrected, fDis-corrected) (d-1); higher = faster biodegradation
Reported conditions: river segment: Germany (DE) H_Contam; incubation temperature 24 °C
Simply state the number, no unit and no words.

Some compounds with known first-order primary biodegradation rate constant k results, for comparison:
                                   compound  result
0  Nc1nc(NC2CC2)c2ncn([C@H]3C=C[C@@H](CO)C3)c2n1     1.6
1  CC(C)NCC(O)COc1ccc(CC(N)=O)cc1 (stereo not given)   0.299
2                  CC(C)N(C(=O)CCl)c1ccccc1   0.302
3                       NCC1(CC(=O)O)CCCCC1  0.0147

Looking up CC[C@@H](C(N)=O)N1CCCC1=O , I see its first-order primary biodegradation rate constant k listed as 0.229

---

Experiment: first-order primary biodegradation rate constant k (sorption-corrected, fDis-corrected) (d-1); higher = faster biodegradation
Reported conditions: river segment: Greece (EL) L_Contam; incubation temperature 19 °C
Measured parameter: first-order primary biodegradation rate constant k

Some compounds with known first-order primary biodegradation rate constant k results, for comparison:
>>> print(df.to_string())
                                   compound  result
0  COc1ccc(NS(=O)(=O)c2ccc(N)cc2)nn1 [Sulfamethoxypyridazine]   0.195
1  CN(C)CCN1C(=O)c2ccccc2N(C)c2ccccc21 [Dibenzepin]   0.215
2  CC(C)(C#N)c1cc(Cn2cncn2)cc(C(C)(C)C#N)c1 [Anastrozole]   0.113
3  O=[N+]([O-])c1ccc(Cc2ccncc2)cc1 [4-(4-Nitrobenzyl)pyridine]    1.94
4  CO[C@@H]1[C@@H](OC(N)=O)[C@@H](O)[C@H](Oc2ccc3c(O)c(NC(=O)c4ccc(O)c(CC=C(C)C)c4)c(=O)oc3c2C)OC1(C)C [Novobiocin]    7.88

Looking up NS(=O)(=O)c1cc(C(=O)O)c(NCc2ccco2)cc1Cl [Furosemide] , I see its first-order primary biodegradation rate constant k listed as 0.114

Looking up COc1cc(NS(=O)(=O)c2ccc(N)cc2)nc(OC)n1 [Sulfadimethoxine] , I see its first-order primary biodegradation rate constant k listed as 0.123

Looking up O=C(NCC1CCCCN1)c1cc(OCC(F)(F)F)ccc1OCC(F)(F)F (configuration not stated) [Flecainide] , I see its first-order primary biodegradation rate constant k listed as 0.0674

Looking up CC(C(=O)O)c1cccc(C(=O)c2ccccc2)c1 (configuration not stated) [Ketoprofen] , I see its first-order primary biodegradation rate constant k listed as 0.285

Looking up c1ccc2[nH]nnc2c1 [Benzotriazole] , I see its first-order primary biodegradation rate constant k listed as 2.87

Looking up Cc1ccc(-c2nc3ccc(C)cn3c2CC(=O)N(C)C)cc1 [Zolpidem] , I see its first-order primary biodegradation rate constant k listed as 2.27

Looking up CC(C)NCC(O)COc1ccc(CC(N)=O)cc1 (configuration not stated) [Atenolol] , I see its first-order primary biodegradation rate constant k listed as 0.665

Looking up C#CCN(C)Cc1ccccc1 [Pargyline] , I see its first-order primary biodegradation rate constant k listed as 0.513

Looking up CC(C)NCC(O)c1ccc(NS(C)(=O)=O)cc1 (configuration not stated) [Sotalol] , I see its first-order primary biodegradation rate constant k listed as 0.337

Looking up CCOC(=O)C1CC(=O)C(=C(O)C2CC2)C(=O)C1 (configuration not stated) [Trinexapac-ethyl] , I see its first-order primary biodegradation rate constant k listed as 0.256

Looking up CC(C)N(C(=O)CCl)c1ccccc1 [Propachlor] , I see its first-order primary biodegradation rate constant k listed as 0.985

Looking up Cc1ccc2n[nH]nc2c1 [5-Methylbenzotriazole] , I see its first-order primary biodegradation rate constant k listed as 0.219

Looking up C=CCOc1ccccc1OCC(O)CNC(C)C (configuration not stated) [Oxprenolol] , I see its first-order primary biodegradation rate constant k listed as 0.756

Looking up NC(=O)N1c2ccccc2C=Cc2ccccc21 [Carbamazepine] , I see its first-order primary biodegradation rate constant k listed as 0.00883

Looking up CCc1cccc(CC)c1N(COC)C(=O)CCl [Alachlor] , I see its first-order primary biodegradation rate constant k listed as 0.568

Looking up CN(C)C(=O)Nc1ccc(Cl)c(Cl)c1 [Diuron] , I see its first-order primary biodegradation rate constant k listed as 0.166

Looking up COCCc1ccc(OCC(O)CNC(C)C)cc1 (configuration not stated) [Metoprolol] , I see its first-order primary biodegradation rate constant k listed as 0.42
